method: Cytotoxicity against human MCF7 cells
Format: cell-based
readout.type: GI50 (µM)
Lab book: enter the figure in µM, no units written.

Recall and state the measured GI50 for "Nc1nc(N)c2c(CCCc3ccc(C(=O)N[C@@H](CCC(=O)O)C(=O)O)cc3)coc2n1" .
0.174

###

method: Cytotoxicity against human 786-0 cells
Type: cell-based
readout.type: GI50
Reply with the number, then its unit.

Recall and state the measured GI50 for "Nc1nc(N)c2c(CCCc3ccc(C(=O)N[C@@H](CCC(=O)O)C(=O)O)cc3)coc2n1" .
123 nM

###

method: Cytotoxicity against MDAN cells
Type: cell-based, MDA-N
condition: human
readout.type: GI50 (nM)
Lab book: enter the figure in nM, no units written.

Recall and state the measured GI50 for "Nc1nc(N)c2c(CCCc3ccc(C(=O)N[C@@H](CCC(=O)O)C(=O)O)cc3)coc2n1" .
22.3

###

method: Cytotoxicity against human SK-MEL-28 cells
Assay type: cell-based
readout.type: GI50 (µM)
Lab book: enter the figure in µM, no units written.

Recall and state the measured GI50 for "Nc1nc(N)c2c(CCCc3ccc(C(=O)N[C@@H](CCC(=O)O)C(=O)O)cc3)coc2n1" .
100

###

target.desc: Thymidylate synthase (Homo sapiens)
Sequence (P04818 whole entry): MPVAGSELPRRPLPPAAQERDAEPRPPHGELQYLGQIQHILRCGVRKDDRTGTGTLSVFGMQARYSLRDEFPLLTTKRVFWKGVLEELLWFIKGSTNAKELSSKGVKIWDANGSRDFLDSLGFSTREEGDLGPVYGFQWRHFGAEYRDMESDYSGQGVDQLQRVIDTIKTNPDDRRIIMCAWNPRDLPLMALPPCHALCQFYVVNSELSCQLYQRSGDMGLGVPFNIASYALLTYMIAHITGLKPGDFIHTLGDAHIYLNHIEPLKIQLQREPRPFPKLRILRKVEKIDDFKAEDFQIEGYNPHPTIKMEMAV
method: Inhibition of human recombinant thymidylate synthase
readout.type: IC50 (µM)
Lab book: enter the figure in µM, no units written.

Recall and state the measured IC50 for "Nc1nc2[nH]cc(CCc3ccc(C(=O)N[C@@H](CCC(=O)O)C(=O)O)cc3)c2c(=O)[nH]1" .
19

###

readout.type: pIC50
The meaning of pIC50 here: minus log10 of the concentration in molar units.

Please respond with reported pIC50 (system Dihydrofolate reductase (Homo sapiens)) for "Nc1nc(N)c2c(CCCc3ccc(C(=O)N[C@@H](CCC(=O)O)C(=O)O)cc3)coc2n1" .
5.05

###

readout.type: IC50 (µM)
Lab book: enter the figure in µM, no units written.

Please respond with reported IC50 (system Thymidylate synthase (Lactobacillus casei)) for "Nc1nc2[nH]cc(CCc3ccc(C(=O)N[C@@H](CCC(=O)O)C(=O)O)cc3)c2c(=O)[nH]1" .
38

###

method: Cytotoxicity against human CCRF-CEM cells
Assay type: cell-based
readout.type: GI50
Reply with the number, then its unit.

Recall and state the measured GI50 for "Nc1nc(N)c2c(CCCc3ccc(C(=O)N[C@@H](CCC(=O)O)C(=O)O)cc3)coc2n1" .
42.9 nM

###

method: Cytotoxicity against human MDA-MB-435 cells
Type: cell-based
readout.type: GI50 (nM)
Lab book: enter the figure in nM, no units written.

Recall and state the measured GI50 for "Nc1nc(N)c2c(CCCc3ccc(C(=O)N[C@@H](CCC(=O)O)C(=O)O)cc3)coc2n1" .
21.4

###

method: Cytotoxicity against human SR cells
Assay type: cell-based
readout.type: GI50 (µM)
Lab book: enter the figure in µM, no units written.

Recall and state the measured GI50 for "Nc1nc(N)c2c(CCCc3ccc(C(=O)N[C@@H](CCC(=O)O)C(=O)O)cc3)coc2n1" .
0.01

###

method: Cytotoxicity against human HOP92 cells
Type: cell-based
condition: HOP-92 cells
readout.type: GI50 (µM)
Lab book: enter the figure in µM, no units written.

Recall and state the measured GI50 for "Nc1nc(N)c2c(CCCc3ccc(C(=O)N[C@@H](CCC(=O)O)C(=O)O)cc3)coc2n1" .
95.9
